Provenance of the data: patent US10138255B2

For each entry below, report its EC50 value.
Tested on: HIV-1 (H9IIIB strain)
Assay: Cell-Based HIV Infection Assay Using a Reporter (MT4-GFP cells)
Conditions: Human immunodeficiency virus 1, inflection point (IP) of viral growth inhibition; MT4-GFP cells infected with HIV-1 H9IIIB; 50% normal human serum; mean of at least two independent experiments; read-out: Cell Based IP (50% NHS)
Experimental: Cell-Based HIV Infection Assay Using a Reporter (“Cell-Based”): MT4-GFP cells contain a stably integrated HIV long terminal repeat promoter directing the transcription of green fluorescent protein (GFP). […] Infected cells were quantified at both 24 and 48 h post incubation using an Acumen eX3 plate reader. Viral reproductive ratio (R0) was determined using the number of infected cells at 48 h divided by the number of infected cells at 24 h. […]
The answer is to be given in nM; state only the numeric part.

Prompt: Report EC50, nothing else, for this compound: CC1(C)C[C@@H]([C@H](c2ccc(Cl)cc2)[C@H](N)C(=O)N[C@H]2CCCC[C@@H]2CC[C@H]2CN[C@@H]3CCCS(=O)(=O)N2C3)CCO1
Completion: 56

Prompt: Report EC50, nothing else, for this compound: CCC(CC)[C@H](c1ccc(Cl)cc1)[C@H](N)C(=O)Nc1cccc(F)c1CCC1CNC2CCCS(=O)(=O)N1C2 (some centres unmarked)
Completion: 49

Prompt: Report EC50, nothing else, for this compound: COC(=O)N[C@H](C(=O)Nc1cccc(F)c1CCC1CNC2CCCS(=O)(=O)N1C2)[C@@H](c1ccc(Cl)cc1)c1ccc(OC)nc1 (some centres unmarked)
Completion: 18

Prompt: Report EC50, nothing else, for this compound: CO[C@H]1CC[C@H]([C@H](c2ccc(F)cc2)[C@H](N)C(=O)Nc2ccc(F)c(F)c2CC[C@H]2CN[C@@H]3CCCS(=O)(=O)N2C3)CC1
Completion: 11

Prompt: Report EC50, nothing else, for this compound: N[C@H](C(=O)Nc1cncc(F)c1CC[C@H]1CN[C@@H]2CCCS(=O)(=O)N1C2)[C@@H](c1ccc(Cl)cc1)c1csc(C(F)(F)F)n1
Completion: 5

Prompt: Report EC50, nothing else, for this compound: COC(=O)N[C@H](C(=O)N[C@H]1CCC[C@@H]1CC[C@H]1CN[C@@H]2CCCS(=O)(=O)N1C2)[C@@H](c1ccccc1)c1ccc(OC)nc1
Completion: 160

Prompt: Report EC50, nothing else, for this compound: N[C@H](C(=O)Nc1cccc(F)c1CCC1CNC2CCCS(=O)(=O)N1C2)[C@H](c1cncc(C(F)(F)F)c1)c1ccc(Cl)c(F)c1 (some centres unmarked)
Completion: 7.1

Prompt: Report EC50, nothing else, for this compound: COC(=O)N[C@H](C(=O)Nc1cccc(F)c1CC[C@H]1CN[C@@H]2CCCS(=O)(=O)N1C2)[C@@H](c1ccc(F)cc1)c1cnc(OC(C)C)nc1
Completion: 16

Prompt: Report EC50, nothing else, for this compound: CC1(C)CC([C@H](c2ccc(Cl)cc2)[C@H](NCCOCc2ccccc2)C(=O)N[C@H]2CCC[C@@H]2CC[C@H]2CN[C@@H]3CCCS(=O)(=O)N2C3)CCO1 (some centres unmarked)
Completion: 310

Prompt: Report EC50, nothing else, for this compound: N[C@H](C(=O)Nc1cccc(F)c1CC[C@H]1CNC2CCCS(=O)(=O)N1C2)[C@@H](c1ccc(Cl)cc1)C1CCS(=O)(=O)CC1 (some centres unmarked)
Completion: 110

Prompt: Report EC50, nothing else, for this compound: COC(=O)N[C@H](C(=O)Nc1cccc(F)c1CC[C@H]1CN[C@@H]2CCCS(=O)(=O)N1C2)[C@@H](c1ccc(Cl)c(F)c1)C1C[C@@H](C)O[C@@H](C)C1 (some centres unmarked)
Completion: 4.9
